readout-type: melting point (°C)

Record request: melting point value, item `CS/C(=N\c1ccccc1)N(C)C1CCN(CCOc2ccc(F)cc2)CC1.O=C(O)/C=C/C(=O)O`
120

Which melting point reading was recorded for the compound `CS/C(=N\c1ccc(C)cc1)N(C)C1CCN(CCCCOc2ccc(F)c(F)c2)CC1.O=C(O)/C=C/C(=O)O` ?
141

(A) CS/C(=N\c1ccc([N+](=O)[O-])cc1)N(C)C1CCN(CCCCOc2ccc(F)c(F)c2)CC1.O=C(O)/C=C/C(=O)O
(B) CS/C(=N\c1c(C(C)C)cccc1C(C)C)N(C)C1CCN(CCCCOc2ccc(F)c(F)c2)CC1.O=C(O)/C=C/C(=O)O
Look at A and B . Which one has the lower recorded melting point number? Write the label of whichever entry you select.
A
(A: 132 °C, B: 194 °C)

###

readout-type: melting point (°C)

Name the reported melting point value associated with the molecule `CS/C(=N\c1ccc(Cl)cc1)N(C)C1CCN(CCCCOc2ccc(F)c(F)c2)CC1.O=C(O)/C=C/C(=O)O`
130

Would you mind telling me what melting point value was observed for `CS/C(=N\c1ccc(F)cc1)N(C)C1CCN(CCCCOc2ccc(F)c(F)c2)CC1.O=C(O)/C=C/C(=O)O` ?
125

May I ask what melting point has been recorded for `CS/C(=N\c1c(C)cccc1C)N(C)C1CCN(CCCCOc2ccc(F)c(F)c2)CC1.O=C(O)/C=C/C(=O)O` ?
129

Need melting point of `CS/C(=N\c1ccccc1F)N(C)C1CCN(CCCCOc2ccc(F)c(F)c2)CC1.O=C(O)/C=C/C(=O)O` , thanks.
148

Request the reported melting point associated with `COc1ccc(OCCCCN2CCC(N(C)/C(=N/c3ccccc3)SC)CC2)cc1.O=C(O)/C=C/C(=O)O`
120

What value of melting point has been recorded for this entry: `COc1ccc(/N=C(\SC)N(C)C2CCN(CCCCOc3ccc(F)c(F)c3)CC2)cc1.O=C(O)/C=C/C(=O)O`
130

So what's the measured melting point for this one? `CS/C(=N\c1cccc(F)c1)N(C)C1CCN(CCCCOc2ccc(F)c(F)c2)CC1.O=C(O)/C=C/C(=O)O`
133

###

List of melting point values.

Use the examples below as a reference point.
# query: melting point of entry `CS/C(=N\c1ccccc1)N(C)C1CCN(CCCOc2ccc(F)c(F)c2)CC1.O=C(O)/C=C/C(=O)O`
106 to 107 °C

Give its melting point value. Item: `CS/C(=N\c1ccccc1)N(C)C1CCN(CCCCCOc2ccc(F)c(F)c2)CC1.O=C(O)/C=C/C(=O)O`
129 to 130 °C

Further cases:
Given the molecule CS/C(=N\c1ccccc1)N(C)C1CCN(CCCCOc2ccc(F)c(F)c2)CC1.O=C(O)/C=C/C(=O)O [Example 1] , what is its reported melting point?
151 to 152 °C

Item `CCS/C(=N\c1ccccc1)N(C)C1CCN(CCCCOc2ccc(F)c(F)c2)CC1.O=C(O)/C=C/C(=O)O` has what recorded melting point?
151 to 152 °C

###

Reported melting point by item:

What does the data say about its melting point? Entry: `CS/C(=N\c1ccccc1)N(CC(C)C)C1CCN(CCCCOc2ccc(F)c(F)c2)CC1.O=C(O)/C=C/C(=O)O`
131 to 132 °C

Requested field: melting point. Item: `CS/C(=N\c1ccccc1)N(C)C1CCN(CCCCOc2ccc(C)c(C)c2)CC1.O=C(O)/C=C/C(=O)O`
138 to 139 °C

If you can, please state the reported melting point value of `CS/C(=N\c1ccccc1)N(C)C1CCN(CCCOCCc2ccc(F)cc2)CC1.O=C(O)/C=C/C(=O)O` .
110 to 111 °C

Entry under review: `CCN(/C(=N/c1ccccc1)SC)C1CCN(CCCCOc2ccc(F)c(F)c2)CC1.O=C(O)/C=C/C(=O)O` . Reported melting point?
120 to 121 °C

I am curious: what melting point value has been reported for `COc1cc(Cl)ccc1OCCCCN1CCC(N(C)/C(=N/c2ccccc2)SC)CC1.O=C(O)/C=C/C(=O)O` ?
106 to 107 °C

More entries:
I have this compound here, `CS/C(=N\c1ccccc1)N(C)C1CCN(CCCCOc2ccc(F)cc2)CC1.O=C(O)/C=C/C(=O)O` , and I need its recorded melting point.
133 to 134 °C

Attribution: patent US6583159B1
